Assay: NCI Yeast Anticancer Drug Screen. Data for the mec2-1 strain (AID 157)
Conditions: S. cerevisiae mec2-1 strain, at 50.0 µM, active compounds read high
This is part of a sample that, as a whole, favours compounds with a hit. Of some 79,000 tested, about 15% had one in any assay.
measured.quantity: growth inhibition (%)

molecule="N=[N+]=CC(=O)OCC(N)C(=O)O (stereo unspecified)" measured_quantity="growth inhibition" test_result=82.2
molecule=O=C(/C=C/c1ccccc1)[c-]1[c-][c-][c-][c-]1.[Fe].[c-]1[c-][c-][cH-][c-]1 measured_quantity="growth inhibition" test_result=11.6
molecule="NC(=O)c1csc(C2O[C@@H](COP(=O)(O)OP(=O)(O)OC[C@H]3OC(n4cnc5c(N)ncnc54)[C@H](O)[C@@H]3O)[C@H](O)[C@@H]2O)n1 (stereo partly specified)" measured_quantity="growth inhibition" test_result=-0.75
molecule="CC(=O)CC(=O)OC1CC(C)CCC1C(C)C (stereo unspecified)" measured_quantity="growth inhibition" test_result=-24.4
molecule=CCCCCCCCCCCCCCC(CCCCCCCCCCCCCC)c1ccccc1 measured_quantity="growth inhibition" test_result=-1.25
molecule="CCOC(=O)C1C(=O)N(O)c2cnccc21 (stereo unspecified)" measured_quantity="growth inhibition" test_result=-16.6
molecule="CCOC(=O)NN(C(=O)OCC)C(C(C)=O)c1ccccc1 (stereo unspecified)" measured_quantity="growth inhibition" test_result=-3.35
molecule=CCCCCCCCCCCCCCCCS(=O)(=O)N/N=C(/c1ccc(OC)c(OC)c1)N1CCCCC1 measured_quantity="growth inhibition" test_result=-28.8
molecule="COc1ncnc2c(NC3OC(CO)C(O)C3O)ncnc12 (stereo unspecified)" measured_quantity="growth inhibition" test_result=-6.5
molecule="CN1CCC(c2ccccc2)(c2ccccc2)C(O)C1 (stereo unspecified)" measured_quantity="growth inhibition" test_result=-0.45
molecule="CN(C)CCN=C1Nc2ccccc2C(=O)N2CSCC12 (stereo unspecified)" measured_quantity="growth inhibition" test_result=-1.95

====

Documented growth inhibition across a set of compounds
Assay: NCI Yeast Anticancer Drug Screen. Data for the cln2 rad14 strain (AID 165);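 note: 0% = growth equal to vehicle treated cultures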
Conditions: S. cerevisiae cln2 rad14 strain, at 50.0 µM, active compounds read high
Compounds without any hit were thinned out: in the full panel of roughly 79,000, 15% have a hit.
measured.quantity: growth inhibition (%)

compound=Nc1cc(N)[nH]c(=S)n1 test_result=-10.9
compound="CN(C)C(=O)OCC1COc2ccccc2O1 (stereo not given)" test_result=-70.2
compound="CC(C)CCCC(C)C1CCC2C3CC=C4CC(OC(=O)c5ccncc5)CCC4(C)C3CCC12C (stereo not given)" test_result=-28.4
compound="CC(=O)O[C@]12CCCCCCC1C1(O)C(O)CCC[C@H]12 (stereo not given in full)" test_result=-8.95
compound=O=C(Oc1ccc2ccccc2c1CN1CCOCC1)c1ccc([N+](=O)[O-])cc1 test_result=30.1
compound=CCN(CC)CCN(CC)CC(=O)Nc1ccccc1Cl test_result=4.35
compound=CCOC(=O)c1c(/N=C/c2cc(Br)ccc2O)sc2c1CCCC2 test_result=12.9
compound="CCCCCC(O)c1ccccc1 (stereo not given)" test_result=-6.8
compound=Ic1ccccc1 test_result=-9.35
compound="CCCc1cc(=O)oc2c3c(c4c(c12)OC(C)(C)CC4)O[C@H](C)C(C)C3O (stereo not given in full)" test_result=26.1
compound=Cc1ccc(S(=O)(=O)N(CCCc2c(Cl)nc(N)nc2Cc2ccccc2)c2ccccc2)cc1 test_result=-73.8
compound=CN(C)C(=O)Sc1ccc(O)cc1 test_result=-28.3
compound="Cc1c2cc3c(c1O)C(=O)CC(O3)c1ccc(O)c(c1)-c1cccc(c1O)C(=O)OCC1OC(O2)C(O)C(O)C1O (stereo not given)" test_result=34.5
compound=CC(=Nc1ccc(Cl)cc1)c1ccncc1 test_result=-6.4
compound=Cc1ncc(CSCC(=O)O)c(N)n1 test_result=-9.05
compound="CCOC(CCC#N)c1ccc(C)cc1 (stereo not given)" test_result=25.2
compound="CC(C)(C)C(OC(=O)Cc1ccccc1)c1ccc2c(c1)OCO2 (stereo not given)" test_result=-3.25
compound=CN1CCC(Cl)(C(=O)c2ccccc2)CC1 test_result=-9.5
compound=Nc1nc(SCC(=O)O)[nH]c(=O)c1N test_result=6.25
compound=CCCCCCSc1n[nH]c(=S)s1 test_result=24.6
compound=Cc1cc2[nH]c3ccccc3n2c(=O)c1N=Nc1ccccc1 test_result=-14.3
compound="CCOC(=O)C1Cc2c([nH]c(=O)[nH]c2=O)OC1c1ccc(OC)cc1 (stereo not given)" test_result=19.4
compound="CN(C)CC1(Cc2ccccc2)CCC(Cc2ccccc2)C1=O (stereo not given)" test_result=54
compound=C=CCCC(C)(C(=O)OCC)C(=O)OCC test_result=-30.3
compound=CC(=O)OC(OC(C)=O)c1ncccc1C(=O)OC(C)C test_result=10.8

====

Assay: NCI Yeast Anticancer Drug Screen. Data for the cln2 rad14 strain (AID 165);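 note: 0% = growth equal to vehicle treated cultures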
Conditions: S. cerevisiae cln2 rad14 strain, at 50.0 µM, active compounds read high
This is part of a sample that, as a whole, favours compounds with a hit. Of some 79,000 tested, about 15% had one in any assay. Where a SMILES comes first, the peptide text is derived from it. [ ]: non-standard residue; d: D form. ξ: configuration not given here. ξA = CC(N)C(=O)O
measured.quantity: growth inhibition (%)

compound=Cc1ccc(N)c(C#N)c1 measured_quantity="growth inhibition" measurement_unit=% test_result=1
compound="COc1ccc(C2Nc3cc(Cl)ccc3NC3=C2C(=O)CC(C)(C)C3)cc1 (stereo not drawn)" measured_quantity="growth inhibition" measurement_unit=% test_result=28.6
compound="CN(C)C=Nc1ccn(C2CC(F)C(CO)O2)c(=O)n1 (stereo not drawn)" measured_quantity="growth inhibition" measurement_unit=% test_result=-7.85
compound="O=S(=O)(O)C(O)C(c1ccccc1)c1ccccc1 (stereo not drawn)" measured_quantity="growth inhibition" measurement_unit=% test_result=-15.8
compound=COc1cccc2cc(-n3nnc4ccccc43)c(=O)oc12 measured_quantity="growth inhibition" measurement_unit=% test_result=7.6
compound=CN(C)/N=C\c1ccc([N+](C)(C)C)cc1 measured_quantity="growth inhibition" measurement_unit=% test_result=-19.9
compound=Cc1cc2c(c(C(=O)NCC(=O)O)c1)Oc1c(cc(C)cc1C(=O)NCC(=O)O)S2 measured_quantity="growth inhibition" measurement_unit=% test_result=14.8
compound=Cc1ccc2c(c1)SCc1c-2[nH]c2ccccc12 measured_quantity="growth inhibition" measurement_unit=% test_result=88.9
compound="O=C(O)C1Cc2ccccc2OC1=O (stereo not drawn)" measured_quantity="growth inhibition" measurement_unit=% test_result=0.6
compound=C=C1C(=O)O[C@@H]2/C=C(\C)CC/C=C(/C)CC[C@@H]12 measured_quantity="growth inhibition" measurement_unit=% test_result=32.8
compound=O=C(NCc1ccncc1)Nc1ccc(Cc2ccc(NC(=O)NCc3ccncc3)cc2)cc1 measured_quantity="growth inhibition" measurement_unit=% test_result=15.3
compound=CCCCNC(=O)c1cccc(OC)c1OC measured_quantity="growth inhibition" measurement_unit=% test_result=2.35
compound=COc1cc(C(=O)O)c(I)c(OC)c1OC measured_quantity="growth inhibition" measurement_unit=% test_result=-4.85
compound="C=CCC1(C(C)C(O)c2cc(OC)c(OC)c(OC)c2)CC(O)C=CC12OCCO2 (stereo not drawn)" measured_quantity="growth inhibition" measurement_unit=% test_result=14.9
compound="CC1C(c2ccccc2)=NN(C)c2ccccc21 (stereo not drawn)" measured_quantity="growth inhibition" measurement_unit=% test_result=-28.1
compound="CCCCCCCCCCCCCCCC(=O)OCC(O)C1OC(=O)C(O)=C1O (stereo not drawn)" measured_quantity="growth inhibition" measurement_unit=% test_result=9.15
compound=CCCc1c(N)nc(N)nc1N measured_quantity="growth inhibition" measurement_unit=% test_result=-48.6
compound=CCCCCCCC/C=C\CCCCCCCCCCCC(=O)O measured_quantity="growth inhibition" measurement_unit=% test_result=-46
compound=C=CC(=O)OCCCS(=O)(=O)[O-].C=CC(=O)OCCCS(=O)(=O)[O-].NC1CCCCC1N.[Pt+4] measured_quantity="growth inhibition" measurement_unit=% test_result=37.5
compound=CN(C=C(C#N)C#N)c1ccccc1 measured_quantity="growth inhibition" measurement_unit=% test_result=-3.95
compound="O=S(=O)(Nc1ccccc1C(O)c1ccccc1)c1ccccc1 (stereo not drawn)" measured_quantity="growth inhibition" measurement_unit=% test_result=-27
compound="CCCCCCC(Br)CCCC (stereo not drawn)" measured_quantity="growth inhibition" measurement_unit=% test_result=-15.2
compound="Cc1cccc(NC(=O)CC(=O)N2N=C(N3c4ccccc4Sc4ccccc43)CC2c2ccccc2)c1 (stereo not drawn)" measured_quantity="growth inhibition" measurement_unit=% test_result=-9.55
compound="CCSC(SCC)C(O)C(O)C(O)C(C)O (stereo not drawn)" measured_quantity="growth inhibition" measurement_unit=% test_result=-34.1
compound=CCCC(=O)c1ccc(=O)n(C)c1 measured_quantity="growth inhibition" measurement_unit=% test_result=-2.1
compound=COc1cc(/C=N/NC2=NCCN2)ccc1O measured_quantity="growth inhibition" measurement_unit=% test_result=14.8
compound=Cc1nc(N)[nH]c(=O)c1CCCN=Cc1ccccc1 measured_quantity="growth inhibition" measurement_unit=% test_result=18.5
compound=Clc1ccc2c(c1)nnn2OC1CCCC1 measured_quantity="growth inhibition" measurement_unit=% test_result=-24.9
compound=O=C1NNC=Nc2ccc(cc2)S(=O)(=O)c2ccc(cc2)N=CNNC1=O measured_quantity="growth inhibition" measurement_unit=% test_result=-9.15
compound="O=C1C(=O)C(CCc2ccccc2)C(=O)/C1=C\\c1ccccc1 (stereo not drawn)" measured_quantity="growth inhibition" measurement_unit=% test_result=-10.4
compound=Fc1ccc2nncc(SCc3ccc(Cl)c(Cl)c3)c2c1 measured_quantity="growth inhibition" measurement_unit=% test_result=-11.2
compound="CCC(O)CN(C)C (stereo not drawn)" measured_quantity="growth inhibition" measurement_unit=% test_result=-13.4
compound=Cc1ccc(-c2c(C#N)c(-c3ccc(Cl)cc3)c(C#N)c(=O)n2NS(=O)(=O)c2ccc(C)cc2)cc1 measured_quantity="growth inhibition" measurement_unit=% test_result=44.6
compound=C=C1CCN(c2ccc([N+](=O)[O-])cc2)C1=O measured_quantity="growth inhibition" measurement_unit=% test_result=-37.6
compound=COc1cc(-c2ccc(Br)[nH]2)[nH]c1C=NCC(C)C measured_quantity="growth inhibition" measurement_unit=% test_result=78.2
compound=O=c1[nH]nc(S(=O)(=O)NC2CCCCC2)c(=O)[nH]1 measured_quantity="growth inhibition" measurement_unit=% test_result=-20.9
compound="CCCCNc1nc(NC2OCC(OC(C)=O)C(OC(C)=O)C2OC(C)=O)c(N=O)c(=O)n1C (stereo not drawn)" measured_quantity="growth inhibition" measurement_unit=% test_result=-28.4
compound=N#Cc1ccc(OCCCOc2ccc(C#N)cc2)cc1 measured_quantity="growth inhibition" measurement_unit=% test_result=5.3
compound=COC(=O)C(=[N+]=[N-])C(=O)c1ccc([N+](=O)[O-])cc1 measured_quantity="growth inhibition" measurement_unit=% test_result=41.8
compound="CC1(CCOCc2ccccc2)NC(=O)NC1=O (stereo not drawn)" measured_quantity="growth inhibition" measurement_unit=% test_result=-33
compound=CC(=O)Nc1ccc(C(=O)N2N=C(C)/C(=C/c3cccc([N+](=O)[O-])c3)C2=O)cc1 measured_quantity="growth inhibition" measurement_unit=% test_result=2.55
compound="CCc1cc2c(c3c1CCCC3=O)CC1(Cc3ccc(C(=O)OC)cc3C1)C2 (stereo not drawn)" measured_quantity="growth inhibition" measurement_unit=% test_result=-20.6
compound=COC(=O)c1cc(-c2ccccc2Cl)n2c(N)nnc2n1 measured_quantity="growth inhibition" measurement_unit=% test_result=-6.2
compound=C=CCN(CC=C)CNC(C)=O measured_quantity="growth inhibition" measurement_unit=% test_result=-17
compound=CCOc1ccccc1C=C1c2ccccc2C(=O)c2ccccc21 measured_quantity="growth inhibition" measurement_unit=% test_result=-21.6
compound="CC(NC(=O)CNC(=O)CNC(=O)CNC(=O)CN)C(=O)O (stereo not drawn) (H-GGGG[ξA]-OH)" measured_quantity="growth inhibition" measurement_unit=% test_result=-10.6
compound=Cc1cc(N(CCC#N)CCC#N)ccc1/C(N=Nc1ccc([N+](=O)[O-])cc1)=N\NC(=O)c1cc(Cl)ccc1C(=O)c1ccccc1 measured_quantity="growth inhibition" measurement_unit=% test_result=-4.25
compound=CCOC(=O)CS measured_quantity="growth inhibition" measurement_unit=% test_result=5.7
